MEASUREMENT_TARGET: T1, full-length hCDCP1 with N-terminal c-Myc tag (expression vector GS01), on Ba/F3-hCDCP1 cells or … (human, UniProt Q9H5V8 30-836)
T1 construct: also called human CDCP1; hCDCP1 forced expression cells
T1 sequence: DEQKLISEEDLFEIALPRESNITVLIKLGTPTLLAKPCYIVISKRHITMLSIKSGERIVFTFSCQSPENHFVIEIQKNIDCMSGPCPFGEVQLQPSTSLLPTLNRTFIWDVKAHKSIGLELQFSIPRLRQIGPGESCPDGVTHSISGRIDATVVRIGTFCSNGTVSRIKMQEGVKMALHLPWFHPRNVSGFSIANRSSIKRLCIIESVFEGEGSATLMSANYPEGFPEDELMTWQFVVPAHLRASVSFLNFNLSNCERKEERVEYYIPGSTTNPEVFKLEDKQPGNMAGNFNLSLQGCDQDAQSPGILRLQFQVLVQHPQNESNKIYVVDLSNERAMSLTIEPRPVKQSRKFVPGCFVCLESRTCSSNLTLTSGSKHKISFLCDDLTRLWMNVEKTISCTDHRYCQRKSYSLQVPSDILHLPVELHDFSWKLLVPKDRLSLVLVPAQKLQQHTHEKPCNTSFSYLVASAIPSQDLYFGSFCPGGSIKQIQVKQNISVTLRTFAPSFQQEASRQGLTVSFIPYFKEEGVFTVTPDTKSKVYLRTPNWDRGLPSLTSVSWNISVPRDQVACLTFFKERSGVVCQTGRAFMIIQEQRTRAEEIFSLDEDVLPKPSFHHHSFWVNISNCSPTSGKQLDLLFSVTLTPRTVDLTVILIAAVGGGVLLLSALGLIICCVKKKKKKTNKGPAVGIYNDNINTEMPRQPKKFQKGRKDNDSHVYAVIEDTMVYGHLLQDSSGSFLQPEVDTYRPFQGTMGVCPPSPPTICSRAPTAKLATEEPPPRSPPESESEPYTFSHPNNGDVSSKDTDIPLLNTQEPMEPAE
PROCEDURE_DETAILS: flow cytometry on Ba/F3-hCDCP1 cells
METRIC: binding result

BINDER	METRIC	OBSERVED_RESULT
h14A043VH2/VL2 (antibody, human IgG1, kappa, V domains shown, humanized antibody, human IgG1/kappa constant regions) VH: QVQLVQSGAEVKKPGSSVKVSCKASGFNIKDYYMNWVRQAPGQGLEWIGWIDPENANTIYDPKFQGRATITADESTSTAYMELSSLRSEDTAVYYCYGSSYRFTYWGQGTLVTVSS VL: EIVLTQSPATLSLSPGERATLSCSASSSVSYLYWYQQKPGQAPRPWIYLTSNLASGVPARFSGSGSGTDYTLTISSLEPEDFAVYYCQQWSSNPFTFGGGTKVEIKR	binding result	binds
mh14A063HCv2/LCv1 (antibody, human IgG1, kappa, V domains shown, mouse-human chimeric antibody, human IgG1/kappa constant regions) VH: EVQLQESGGGLVQPGGSLKLSCAASGFTFSSYTMSWVRQTPEKRLEWVAYISNAGGSTYYPDTVKGRFTISRDNAKNTLYLQMSSLKSEDTAMYYCARYDLGFAYWGQGTLVTVSS VL: NIVLTQSPASLAVSLGQRATISCRASESVDSYGNSFLHWYQQKPGQPPKLLIFLASNLESGVPARFSGSGSRTDFTLTIDPVEADDAATYYCQQNNEDPWTFGGGTNLEIKR	binding result	binds
mh12A041HCori/LCoriA (antibody, human IgG1, kappa, V domains shown, mouse-human chimeric antibody, human IgG1/kappa constant regions) VH: EVQLQESGPGILQPSQTLSLTCSFSGFSLSTSGMGVSWIRQPSGKGLEWLAHIYWDDDKRYNPSLKSRLTISKDTSSNQVFLKITSVDTADTATYYCARSGSYYGSSLDCWGQGTTLTVSS VL: DVLMTQTPLSLPVSLGDQASISCRSSQSIVYSNGNTYLEWYLQKPGQSPKLLIYKVSNRFSGVPDRFSGSGSGTDFTLKISRVEAEDLGVYYCFQGSHVPWTFGGGTKLEIRR	binding result	binds
